Consider the following compounds and their measured inhibition at 0.1 µM readings.
- target-under-test: CDK4/cyclin D3 (Homo sapiens, UniProt P11802)
- Construct: made in house; host or cells: insect cells (baculovirus co-infection)
- Sequence (P11802 whole entry): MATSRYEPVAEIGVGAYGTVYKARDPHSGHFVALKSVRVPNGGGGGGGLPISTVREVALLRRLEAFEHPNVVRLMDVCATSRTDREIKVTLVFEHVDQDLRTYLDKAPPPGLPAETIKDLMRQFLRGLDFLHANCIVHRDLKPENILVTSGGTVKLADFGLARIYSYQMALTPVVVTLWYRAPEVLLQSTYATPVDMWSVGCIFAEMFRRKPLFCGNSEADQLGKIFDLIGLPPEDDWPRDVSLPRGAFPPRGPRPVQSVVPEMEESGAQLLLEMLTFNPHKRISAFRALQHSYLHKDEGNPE
- Sequence (P30281 1-264 partner limits assumed): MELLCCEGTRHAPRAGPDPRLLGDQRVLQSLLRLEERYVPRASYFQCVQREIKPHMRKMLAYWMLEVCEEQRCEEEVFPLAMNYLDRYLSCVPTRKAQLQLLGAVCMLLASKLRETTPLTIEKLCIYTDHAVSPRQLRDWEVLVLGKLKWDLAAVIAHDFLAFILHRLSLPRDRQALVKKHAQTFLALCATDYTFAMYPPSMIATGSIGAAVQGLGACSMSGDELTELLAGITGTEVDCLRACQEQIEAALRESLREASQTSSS
- test-details: Inhibition of CDK4/Cyclin D retinoblastoma kinase activity
- Assay type: biochemical
- recorded-conditions: test compound at 0.1 μM; read-out: % Inhib CDK4/D @ 0.1 μM
Answer format: numeric, % implied, no suffix.

// known answers, use as guide
compound	target-under-test	inhibition at 0.1 µM / %
Nc1nc(Nc2ccc([S+]([O-])CCN3CCCC3)cc2)sc1C(=O)c1c(Cl)cccc1Cl (stereo not shown) [DD(87)]	CDK4/cyclin D3 (Homo sapiens, UniProt P11802)	29
Nc1nc(Nc2ccc(SCCN3CCCC3)cc2)sc1C(=O)c1c(Cl)cccc1Cl [DD(7)]	CDK4/cyclin D3 (Homo sapiens, UniProt P11802)	31
Nc1nc(Nc2cccc([S+]([O-])Cc3ccncc3)c2)sc1C(=O)c1c(Cl)cccc1Cl (stereo not shown) [DD(155)]	CDK4/cyclin D3 (Homo sapiens, UniProt P11802)	35

In the following, a different compound is considered.
Ask: May I ask what inhibition at 0.1 µM has been recorded for COC(=O)/C=C/C[S+]([O-])c1ccc(Nc2nc(N)c(C(=O)c3c(Cl)cccc3Cl)s2)cc1 (stereo not shown) [DD(84)] ?
Reply: 26

* * *

This section presents compounds with their documented Ki values.
- target-under-test: CDK2/cyclin A (Homo sapiens)
- Construct: cyclin A: E. coli, then limited proteolysis
- test-details: Inhibition of CDK2/Cyclin A retinoblastoma kinase activity
- recorded-conditions: apparent Ki, Rb fragment substrate
Structures can show the parent of a compound that is named as a salt.
Field format: number, assumed µM, no unit text.

compound	quantity-unit	reported-measurement
CCN(CC)CCCCNS(=O)(=O)c1ccc(Nc2nc(N)c(C(=O)c3c(F)cccc3F)s2)cc1	µM	0.0029
CCN(CC)CCCNS(=O)(=O)c1ccc(Nc2nc(N)c(C(=O)c3c(F)cccc3F)s2)cc1	µM	0.01
Cc1cc(F)c(C(=O)c2sc(Nc3ccc(S(=O)(=O)NCCOC(C)C)cc3)nc2N)c(F)c1	µM	0.00074
NC(=O)C[S+]([O-])c1cccc(Nc2nc(N)c(C(=O)c3c(Cl)cccc3Cl)s2)c1 (stereo not drawn)	µM	0.33
CC(C)OCCNS(=O)(=O)c1ccc(Nc2nc(N)c(C(=O)c3c(F)cccc3F)s2)cc1	µM	0.002

Ask: Data request, read-out Ki, for Nc1nc(Nc2ccc(S(=O)(=O)NCC3CCCNC3)cc2)sc1C(=O)c1c(F)cccc1F (stereo not drawn)
Reply: 0.018

Ask: Same lookup for Cn1cncc1CNS(=O)(=O)c1ccc(Nc2nc(N)c(C(=O)c3c(F)cccc3F)s2)cc1 [A(38), Trifluoroacetic Acid Salt] , please.
Reply: 0.00048

Ask: Could you do the same for "Nc1nc(Nc2ccc(S(=O)(=O)NCCc3ccccn3)cc2)sc1C(=O)c1c(F)cccc1F" , please?
Reply: 0.005

Ask: Similarly, "CN(C)CCNS(=O)(=O)c1ccc(Nc2nc(N)c(C(=O)c3c(F)cccc3F)s2)cc1" ?
Reply: 0.0045

Ask: Repeat for the following compound: CC(CCCC(C)(C)O)NS(=O)(=O)c1ccc(Nc2nc(N)c(C(=O)c3c(F)cc(F)cc3F)s2)cc1 (stereo not drawn)
Reply: 0.0013

Ask: Now give it for "Nc1nc(Nc2ccc(S(=O)(=O)NCCOCCO)cc2)sc1C(=O)c1c(F)cccc1F" too.
Reply: 0.0053

Ask: Input "CS(=O)(=O)c1ccc(Nc2nc(N)c(C(=O)c3c(Cl)cccc3Cl)s2)cc1"
Reply: 0.138

Ask: Then what about the compound "CS(=O)(=O)c1cccc(Nc2nc(N)c(C(=O)c3c(Cl)cccc3Cl)s2)c1" ?
Reply: 0.43

Ask: Likewise for "CC(C)CCCCNS(=O)(=O)c1ccc(Nc2nc(N)c(C(=O)c3c(F)cccc3F)s2)cc1" ?
Reply: 0.0049

Ask: Repeat with "Nc1nc(Nc2ccc(S(=O)(=O)NCCO)cc2)sc1C(=O)c1c(F)cccc1F"
Reply: 0.0045

Ask: Similarly, "CS(=O)(=O)c1ccc(Nc2nc(N)c(C(=O)c3c(F)cccc3F)s2)cc1" ?
Reply: 0.21

Ask: // query: "CSc1ccc(Nc2nc(N)c(C(=O)c3c(Cl)cccc3Cl)s2)cc1"
Reply: 0.25

Ask: Now the same for Nc1nc(Nc2ccc([S+]([O-])CCO)cc2)sc1C(=O)c1c(Cl)cccc1Cl (stereo not drawn)
Reply: 0.17

Ask: Quick one: "Nc1nc(Nc2ccc(S)cc2)sc1C(=O)c1c(Cl)cccc1Cl"
Reply: 0.52

* * *

- target-under-test: CDK4/cyclin D3 (Homo sapiens)
- Construct: made in house; host or cells: insect cells (baculovirus co-infection)
- test-details: Inhibition of CDK4/Cyclin D retinoblastoma kinase activity
- Assay type: biochemical
- recorded-conditions: test compound at 0.03 (unit cell empty, head line shifted; μM); read-out: % Inhib CDK4/D @ 0.03
attribute-measured: inhibition at 0.03 µM (%)
Please respond with the number in % and leave the unit unwritten.

Sample answers from the record:
compound	quantity-unit	reported-measurement
CC(CSc1cccc(Nc2nc(N)c(C(=O)c3c(Cl)cccc3Cl)s2)c1)CN(C)C (stereo not shown)	%	25
Nc1nc(Nc2ccc([S+]([O-])CC(O)CO)cc2)sc1C(=O)c1c(Cl)cccc1Cl (stereo not shown)	%	16
Nc1nc(Nc2cccc([S+]([O-])CCN3CCOCC3)c2)sc1C(=O)c1c(Cl)cccc1Cl (stereo not shown)	%	36

Attention now turns to another entry.
Ask: Quick check: inhibition at 0.03 µM on CDK4/cyclin D3 (Homo sapiens), item "Nc1nc(Nc2cccc(SCC3CC3)c2)sc1C(=O)c1c(Cl)cccc1Cl" ?
Reply: 2.9

* * *

- System: HCT-116 cells
- test-details: Inhibition of cell growth (MTT tetrazolium salt assay)
- Type: cell-based
- recorded-conditions: Homo sapiens, read-out: HCT116 IC90
In this section we review reported IC90 values for a set of compounds.
State the answer as a number, implicitly in nM.

compound	quantity-unit	IC90
CN(C)S(=O)(=O)c1ccc(Nc2nc(N)c(C(=O)c3c(F)cccc3F)s2)cc1 [C(109)*, reference compound]	nM	3000

Ask: If you can, please state the reported IC90 value of Nc1nc(Nc2ccc(S(=O)(=O)N3CCNCC3)cc2)sc1C(=O)c1c(F)cccc1F [Example A(1)] .
Reply: 2700

Ask: Another compound to look at: Nc1nc(Nc2ccc(S(=O)(=O)NCCc3cccs3)cc2)sc1C(=O)c1c(F)cccc1F [A(23)]
Reply: 1200

Ask: Now give it for Nc1nc(Nc2ccc(S(=O)(=O)NCc3cc4ccccc4o3)cc2)sc1C(=O)c1c(F)cccc1F [A(34)] too.
Reply: 1800

* * *

// values below are reported % Inhib CDK4/D @ 1 μM
- target-under-test: CDK4/cyclin D3 (Homo sapiens, UniProt P11802)
- Construct: made in house; host or cells: insect cells (baculovirus co-infection)
- test-details: Inhibition of CDK4/Cyclin D retinoblastoma kinase activity;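 as to % Inhib CDK4/D @ 1 μM: relative to DMSO control wells without compound minus no-enzyme background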
- Assay type: biochemical
- recorded-conditions: test compound at 1 μM (head line shifted: 'mM' printed beside 'Structure'); 1 µM

Example entries and their recorded answers appear below.
molecule	% Inhib CDK4/D @ 1 μM
Nc1nc(Nc2ccc(S(=O)(=O)CC3CO3)cc2)sc1C(=O)c1c(Cl)cccc1Cl (stereo not shown) [DD(172)]	24.9%
COCCS(=O)(=O)c1ccc(Nc2nc(N)c(C(=O)c3c(Cl)cccc3Cl)s2)cc1 [DD(174)]	24.6%

Ask: Give CDK4/cyclin D3 (Homo sapiens, UniProt P11802) % Inhib CDK4/D @ 1 μM for Nc1nc(Nc2ccc(S(=O)(=O)CCCO)cc2)sc1C(=O)c1c(Cl)cccc1Cl [DD(165)]
Reply: 34.3%

Ask: Also, Cc1noc(C)c1CS(=O)(=O)c1ccc(Nc2nc(N)c(C(=O)c3c(Cl)cccc3Cl)s2)cc1 [DD(202)] please.
Reply: 45.2%

Ask: Please give the result for Nc1nc(Nc2ccc(S(=O)(=O)CC(=O)Nc3ccccc3)cc2)sc1C(=O)c1c(Cl)cccc1Cl [DD(215)] too.
Reply: 4.9%

Ask: Proceed to COC(=O)/C=C/CS(=O)(=O)c1ccc(Nc2nc(N)c(C(=O)c3c(Cl)cccc3Cl)s2)cc1 [DD(203)]
Reply: 33.7%

* * *

- target-under-test: CDK4/cyclin D3 (Homo sapiens)
- test-details: Inhibition of CDK4/Cyclin D retinoblastoma kinase activity
- recorded-conditions: apparent Ki, Rb fragment substrate
Quick reference for Ki among some compounds
// units = µM; emit number, no label

Look over these answered cases.
compound	quantity-unit	reported-measurement
Cc1cc(F)c(C(=O)c2sc(Nc3ccc(S(=O)(=O)NCCOC(C)C)cc3)nc2N)c(F)c1 [Example CC(1)]	µM	0.0097
Nc1nc(Nc2ccc(SCCO)cc2)sc1C(=O)c1c(Cl)cccc1Cl [Y(2)]	µM	0.0076

Ask: Which Ki is listed for Nc1nc(Nc2ccc(S(=O)(=O)NCc3ccco3)cc2)sc1C(=O)c1c(F)cccc1F [Example A(22)] ?
Reply: 0.022
